tested.on: T1, FZD8 CRD (Homo sapiens, UniProt Q9H461)
T1 construct: K31-D155; GPI anchor signal (C); expressed in transfected cells; host or cells: CHO cells, lentiviral pLenti-puro
T1 sequence (Q9H461 31-155): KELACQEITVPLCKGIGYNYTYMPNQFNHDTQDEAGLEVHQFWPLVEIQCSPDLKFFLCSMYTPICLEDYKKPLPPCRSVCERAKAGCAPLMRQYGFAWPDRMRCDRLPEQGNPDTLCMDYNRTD
protocol.text: Immunofluorescence of anti-FZD5 Fab binding to CHO cells overexpressing Frizzled CRD
Design: key: −: no binding; +: very weak binder; ++: weak binder; +++: good binder; ++++: very good binder
Experimental: Plasmids: pLCKO lentiviral vector used for knockout (TKO) library construction and expression of individual gRNAs was constructed as described previously (Hart et al., 2015). Briefly, single guide RNA (sgRNA) scaffold was amplified from px330 (Addgene 42230) and cloned into pLKO.TRC005 lentiviral vector (Broad Institute, Cambridge, Mass.) using AgeI/EcoRI restriction sites. BfuAI sites were added at the 5′ end of the sgRNA scaffold for cloning the TKO library or individual gRNA target sequences. […]
value.kind: Immunofluorescence binding, Frizzled CRD overexpressed on CHO cells: FZD8

[[record]]
molecule = "Fab-2910: anti-FZD5 Fab with antibody variable region Fv-2910; CDR SEQ ID NOs: 35, 36, 49, 88, 125, 162 (antibody, V domains shown) VH: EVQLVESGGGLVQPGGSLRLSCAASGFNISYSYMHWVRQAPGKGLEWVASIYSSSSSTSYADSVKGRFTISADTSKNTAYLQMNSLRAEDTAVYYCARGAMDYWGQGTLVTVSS VL: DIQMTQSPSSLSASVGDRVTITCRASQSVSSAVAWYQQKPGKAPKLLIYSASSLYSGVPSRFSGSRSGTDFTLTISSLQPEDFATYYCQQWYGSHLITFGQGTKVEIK"
measured = "−"

[[record]]
molecule = "Fab-2924: anti-FZD5 Fab with antibody variable region Fv-2924; CDR SEQ ID NOs: 35, 36, 63, 101, 139, 153 (antibody, V domains shown) VH: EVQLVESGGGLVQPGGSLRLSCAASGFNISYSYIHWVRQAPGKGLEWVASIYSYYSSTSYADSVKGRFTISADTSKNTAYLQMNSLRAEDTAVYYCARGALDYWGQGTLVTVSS VL: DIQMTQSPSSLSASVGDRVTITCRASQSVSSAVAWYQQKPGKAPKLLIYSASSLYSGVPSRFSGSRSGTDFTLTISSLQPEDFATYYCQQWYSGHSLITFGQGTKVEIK"
measured = "+"


Every entry's value here was drawn from patent US20210253718A1.
